Heads up, these molecules all have Ki values measured for Prostaglandin E2 receptor EP1 subtype (Mus musculus, UniProt P35375).
quantityKind: Ki (µM)

                                   molecule  quantitykind  measuredresult
0  Cc1cc2c(CC(=O)O)cccc2n1C(=O)c1ccc(OC[C@@H]2COc3ccccc3O2)cc1            Ki               2
1  Cc1cc2c(CC(=O)O)cccc2n1C(=O)c1ccc(OC[C@@H]2CN(C)c3ccccc3O2)cc1            Ki             6.2
2  Cc1cc2c(CC(=O)O)cccc2n1C(=O)c1ccc(OCC2Oc3ccccc3O2)cc1            Ki            0.78
3  Cc1cc2c(CC(=O)O)cccc2n1C(=O)c1ccc(OCCOc2ccccc2)cc1            Ki             5.6

A = Cc1cc2c(CC(=O)O)cccc2n1C(=O)c1ccc(OCC2CCc3ccccc3O2)cc1 (stereo not given)
B = Cc1cc2c(CC(=O)O)cccc2n1C(=O)c1ccc(OCc2ccccc2)cc1
Query :: Hi! Which is lower in terms of Ki, the first one A or the second one B ? Output the label that corresponds to your choice.
Result :: B
(B: 1.2 µM, A: 3.8 µM)

A = Cc1cc2c(CC(=O)O)cccc2n1C(=O)c1ccc(OC[C@H]2COc3ccccc3O2)cc1
B = Cc1cc2c(CC(=O)O)cccc2n1C(=O)c1ccc(OCC2Cc3ccccc3O2)cc1 (stereo not given)
Query :: // compare measured Ki between A and B ; output the lower one Lab log: write the label of the selected item as the result.
Result :: A
(A: 2.3 µM, B: 7.8 µM)

* * *

List of pKi values.
Biological target: Prostaglandin E2 receptor EP4 subtype (Mus musculus)
Sequence (P32240 whole entry): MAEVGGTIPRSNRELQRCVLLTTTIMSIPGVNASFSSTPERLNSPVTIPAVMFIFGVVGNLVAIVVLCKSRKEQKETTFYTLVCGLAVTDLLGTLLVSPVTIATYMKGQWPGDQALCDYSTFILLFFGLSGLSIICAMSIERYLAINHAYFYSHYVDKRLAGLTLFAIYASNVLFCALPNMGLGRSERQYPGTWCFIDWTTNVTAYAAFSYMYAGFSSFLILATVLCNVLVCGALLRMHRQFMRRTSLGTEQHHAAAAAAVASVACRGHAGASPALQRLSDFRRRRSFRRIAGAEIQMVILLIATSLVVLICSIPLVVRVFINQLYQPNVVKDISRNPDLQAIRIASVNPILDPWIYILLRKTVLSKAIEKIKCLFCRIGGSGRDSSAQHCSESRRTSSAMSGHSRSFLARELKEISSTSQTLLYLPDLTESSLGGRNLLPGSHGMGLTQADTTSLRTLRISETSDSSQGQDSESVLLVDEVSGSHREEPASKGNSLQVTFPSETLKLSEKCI
pKi: −log10 of the molar value.

Worked examples follow.
>>> df
                                  structure  measuredresult
0  Cc1cc2c(CC(=O)O)cccc2n1C(=O)c1ccc(OC[C@@H]2CN(C)c3ccc(F)cc3O2)cc1          < 5.00
1  Cc1cc2c(CC(=O)O)cccc2n1C(=O)c1ccc(OCc2ccccc2)cc1          < 5.00

The record that follows has no pKi shown yet.
Query :: Enter pKi (test system Prostaglandin E2 receptor EP4 subtype (Mus musculus)) for Cc1cc2c(CC(=O)O)cccc2n1C(=O)c1ccc(OC[C@H]2CN(C)c3ccccc3O2)cc1
Result :: < 5.00
